Tested on: DU-145 prostate
Experiment: NCI tumour cell line growth inhibition, 48 h
GI50 reference

Sample records with GI50:
INSERT INTO assay_data (molecule, observed_value) VALUES
  ('CC1(C)CN(c2cc(C(F)(F)F)cc3cncn23)CCC12NC(=O)NC2=O (stereo not given)', '56.2 µM'),
  ('CCC(CC)c1nc(Nc2cccc(OC)c2)c2ccccc2n1', '6.48 µM'),
  ('O=C(Nc1nc(-c2ccc(Cl)cc2)cs1)c1cc(-c2ccc(Br)cc2)nc2ccc(Cl)cc12', '3.67 µM'),
  ('[N-]=[N+]=NCCCn1c2c(c3cc4c(cc3c1=O)OCO4)C(=O)c1ccccc1-2', '17.5 µM'),
  ('c1ccc([P+](c2ccccc2)(c2ccccc2)c2ccc3c4ccc([P+](c5ccccc5)(c5ccccc5)c5ccccc5)c5cccc(c6cccc2c63)c54)cc1', '0.811 µM'),
  ('C[n+]1c(-c2ccccc2)c2cc(N)ccc2c2ccccc21', '4.12 µM'),
  ('COc1cc(-c2ccc(-c3ccc(C(=N)N)cc3)s2)cc(OC)c1OC', '2.41 µM'),
  ('Clc1ccc2c(c1)C(Br)c1cc(Cl)cc(Cl)c1-2 (stereo not given)', '> 100 µM'),
  ('Nc1nc(N)c(N=Nc2ccccc2)c(-c2ccccc2)n1', '9.9 µM');

Value of measured GI50 for the entry O=C(c1ccc(Cl)cc1)c1no[n+]([O-])c1C(=O)c1ccc(Cl)cc1 : 17 µM

* * *

Test system: RPMI-8226 leukemia
Experiment: NCI tumour cell line growth inhibition, 48 h
measured_quantity: GI50

Consider the following illustrative entries.
INSERT INTO measurements (compound, measured_quantity, observed_value) VALUES
  ('CCO/C=N/C1=C(C#N)C(c2ccc(OC)cc2)c2sc3c(F)cccc3c2O1 (stereo not drawn)', 'GI50', '3.26 µM'),
  ('Cn1ccc(=O)c2c(O)c3ccccc3c(O)c21', 'GI50', '34.5 µM'),
  ('NC1CCCCC1N.Nc1c(N=Nc2ccc(-c3ccc(N=Nc4cc(S(=O)(=O)[O-])c5ccccc5c4N)cc3)cc2)cc(S(=O)(=O)[O-])c2ccccc12.[OH3+].[OH3+].[Pt+4]', 'GI50', '25.2 µM');

GI50 recorded for this compound, O=C(Nc1nc(-c2ccc(Cl)cc2)cs1)c1cc(-c2ccc(Br)cc2)nc2ccc(Cl)cc12 , is 3.73 µM

GI50 reported for this compound O=C(c1ccc(Cl)cc1)c1no[n+]([O-])c1C(=O)c1ccc(Cl)cc1 : 4.6 µM

// GI50 lookup, compound = C#CCn1cnc2cnc(Nc3cccc(NC(=O)CCl)c3)nc21 , result: 19.2 µM

According to the records, this compound COC(=O)[C@@H](C)C[C@H](Cc1ccc2ccccc2c1)NC(=O)c1csc([C@@H](C[C@H](C(C)C)N(C)C(=O)[C@@H](NC(=O)[C@H]2CCCCN2C)C(C)C)OC(C)=O)n1 displays GI50 of 0.00932 µM

GI50 recorded for this compound, CCCCCCCCCCS(=O)CC(CO)NC(=O)/C=C/c1c(C)[nH]c(=O)[nH]c1=O (stereo not drawn) , is 10.6 µM

* * *

Quick list: TGI per entry.
System: MDA-N
Assay: NCI tumour cell line growth inhibition, 48 h
The answer is to be given in µM; state only the numeric part.

Recorded results for 5 compounds are shown here.
INSERT INTO results (compound, observed_value) VALUES
  ('C[C@@]1(Br)C[C@@](C)(Cl)[C@@H](Br)CC1/C=C/Cl (some centres undefined)', 29.7),
  ('CN(CCCCCl)P(=O)(OCC1=CC(=O)c2ccccc2C1=O)OC[C@H]1O[C@@H](n2cc(F)c(=O)[nH]c2=O)C[C@@H]1O (some centres undefined)', 2.19),
  ('Cc1ccc(O)c(C(c2ccc(C(c3cc(C)ccc3O)c3cc(C)ccc3O)cc2)c2cc(C)ccc2O)c1', 2.87),
  ('O=C1C(Cl)=C(N2C(=O)CCC2=O)C(=O)c2ccccc21', 35),
  ('CCOC(=O)/C=C(/C(=O)OCC)n1cc(C)c(=O)n(/C(=C/C(=O)OCC)C(=O)OCC)c1=O', 13.7);

Value of measured TGI for the entry CC(=O)Nc1ccc(S(=O)(=O)Nc2nc(-c3ccc(Cl)cc3)cc(N3N=C(c4ccc(Br)cc4)CC3c3ccccc3)n2)cc1 (centres undefined) : 29.8

The reported TGI of the compound CC(C)(C)c1ccc(C(C)(C)C)c(N2C(=O)[C@@H]3[C@@H]4C=C[C@@H](C4)[C@]3(C)C2=O)c1 was 31.9

In plain terms, Cc1cnc(-n2c(C)nc3cc(Cl)ccc3c2=O)s1 has a documented TGI of 56.8

// sample O=C1C(Cl)C(c2cc3cc(Br)ccc3nc2Cl)N1c1ccc(F)c(Cl)c1 (centres undefined) , its TGI was 22.3

FYI, the data here is from PubChem BioAssay (NCI).
